Where do these numbers come from? They come from patent US9138659B2.

- test_summary: CBZ nucleation induction time and polymorphic outcome with PEGMDA microgels in ethanol
- Assay type: physicochemical
- test_context: PEGMDA microgels

| molecule | optimum mesh size for CBZ nucleation (nm) |
| --- | --- |
| NC(=O)N1c2ccccc2C=Cc2ccccc21 [CBZ, carbamazepine] | 1.1 |

====

- test_summary: Nucleation induction time of aspirin on crosslinked polymer plates (non-porous and porous)
- Type: physicochemical
- test_context: HBA polymer, bulk polymerization, S=4.75, FIG. 4
quantity_measured: average induction time τ from linear fit ln(P)=−t/τ (h)

| compound | quantitative_readout |
| --- | --- |
| CC(=O)Oc1ccccc1C(=O)O [aspirin] | 38.2 |
